For each of the compounds below, state its remaining at 1 h, 50 µM.
test: Metabolic stability in human liver microsomes assessed as parent compound remaining at 50 uM after 1 hr in presence of NADPH regenerating system by UV/LC-MS analysis; type: ADME, microsome; details: read-out: Stability
Number only, in %; omit the unit.

Form field remaining at 1 h, 50 µM, entry ClC(Cn1ncc2c(NCc3ccccc3)ncnc21)c1ccccc1 (centres undefined) : 78.3

The compound Clc1ccccc1CNc1ncnc2c1cnn2CC(Cl)c1ccc(Br)cc1 (centres undefined) showed remaining at 1 h, 50 µM equal to 95.2

So, ClC(Cn1ncc2c(Nc3cccc(Br)c3)nc(SCCN3CCOCC3)nc21)c1ccccc1 (centres undefined) ? Its remaining at 1 h, 50 µM was 97.2

Measured remaining at 1 h, 50 µM, CN1CCN(CCOC(=O)N(c2cccc(Br)c2)c2nc(SCCN3CCOCC3)nc3c2cnn3CC(Cl)c2ccccc2)CC1 (centres undefined) : 93.6

The reported value for CN1CCN(CCOC(=O)N(Cc2ccccc2)c2ncnc3c2cnn3CC(Cl)c2ccccc2)CC1 (centres undefined) in terms of remaining at 1 h, 50 µM is 86.4

The reported remaining at 1 h, 50 µM of the compound ClC(Cn1ncc2c(Nc3ccccc3)ncnc21)c1ccc(Br)cc1 (centres undefined) was 96.4

Per the record, `CSc1nc(Nc2cccc(Cl)c2)c2cnn(CCc3ccccc3)c2n1` has remaining at 1 h, 50 µM of 99

Lab note: CSc1nc(NCCc2ccccc2)c2cnn(CC(Cl)c3ccccc3)c2n1 (centres undefined) gave remaining at 1 h, 50 µM of 96.2

Value of remaining at 1 h, 50 µM reported for the compound CSc1nc(Nc2cccc(Cl)c2)c2cnn(CC(Cl)c3ccccc3)c2n1 (centres undefined) is 91.1

###

experiment: Half life in PBS buffer at 100 uM at pH 7.4 by UV/LC-MS analysis; type: physicochemical
I'd appreciate it if you could supply half-life at 100 µM values for the items below.

CSc1nc(N(C(=O)OC(CN2CCN(C)CC2)c2ccccc2)c2cccc(Br)c2)c2cnn(CC(C)c3ccccc3)c2n1 (stereo not given) yielded half-life at 100 µM of < 0.25 h

Per the records, this compound ( CCC(CN1CCN(C)CC1)OC(=O)N(c1cccc(Br)c1)c1nc(SC)nc2c1cnn2CC(C)c1ccccc1 (stereo not given) ) has half-life at 100 µM equal to > 48 h

// CN1CCN(CCOC(=O)N(c2ccccc2)c2ncnc3c2cnn3CC(Cl)c2ccc(Br)cc2)CC1 (stereo not given) : half-life at 100 µM value = > 48 h

half-life at 100 µM in this record for CSc1nc(N(C(=O)OC(C)CN2CCN(C)CC2)c2cccc(Br)c2)c2cnn(CC(C)c3ccccc3)c2n1 (stereo not given) : > 48 h

Field half-life at 100 µM (entry CSc1nc(N(C(=O)OC(Cc2ccccc2)CN2CCN(C)CC2)c2cccc(Br)c2)c2cnn(CC(C)c3ccccc3)c2n1 (stereo not given) ) reads > 48 h

###

Field: pIC50. Provide a value for each of the compounds that follow.
assay: cells; settings: Homo sapiens, U-87 MG, 72 h
Description: Cytotoxicity against human U87 cells assessed as reduction in cell viability after 72 hrs by trypan blue assay
The read-out pIC50 is expressed as -log10 of concentration in moles per litre.

pIC50 in this record for CSc1nc(Nc2cccc(Br)c2)c2cnn(CC(C)c3ccccc3)c2n1 (centres undefined) : 5.82

Form: compound = ClC(Cn1ncc2c(NCc3ccccc3)ncnc21)c1ccccc1 (centres undefined) ; pIC50 = 5.54

# pIC50 (compound: CN1CCN(CCOC(=O)N(c2cccc(Br)c2)c2nc(SCCN3CCOCC3)nc3c2cnn3CC(Cl)c2ccccc2)CC1 (centres undefined) ) is 5.74

Measured pIC50, CSc1nc(N(C(=O)OCCN2CCN(C)CC2)c2cccc(Cl)c2)c2cnn(CC(Cl)c3ccccc3)c2n1 (centres undefined) : 5.60

###

assay: physchem; details: PAMPA
Description: Apparent permeability at 500 uM after 5 hrs by Blood-Brain Barrier-based PAMPA
MEASURED ATTRIBUTE: Papp at 5 h, 500 µM (×10⁻⁶ cm/s)
Use ×10⁻⁶ cm/s as the unit, but write only the number.

Reported Papp at 5 h, 500 µM for CN1CCN(CCOC(=O)N(Cc2ccccc2)c2ncnc3c2cnn3CC(Cl)c2ccccc2)CC1 (centres undefined) was 5.01

Value of measured Papp at 5 h, 500 µM for the entry CSc1nc(Nc2cccc(Cl)c2)c2cnn(CC(Cl)c3ccccc3)c2n1 (centres undefined) : 3.14

For reference, reported Papp at 5 h, 500 µM for ClC(Cn1ncc2c(Nc3cccc(Br)c3)nc(SCCN3CCOCC3)nc21)c1ccccc1 (centres undefined) stands at 7.1

Per the records, this compound ( CN1CCN(CCOC(=O)N(c2ccccc2)c2ncnc3c2cnn3CC(Cl)c2ccc(Br)cc2)CC1 (centres undefined) ) has Papp at 5 h, 500 µM equal to 6.97
